# Tested on: SK-MEL-28 melanoma
# PROCEDURE_TEXT: NCI tumour cell line growth inhibition, 48 h
Let's look at some compounds and their measured GI50.

Below are worked cases with known answers.
| COMPOUND | GI50 |
| --- | --- |
| COc1cc(C[C@H]2COC(=O)[C@]2(O)Cc2ccc(OCc3ccccc3)c(OC)c2)ccc1OCc1ccccc1 | > 100 µM |
| CCN1C(=O)N(CC)C2C1NN=c1s/c(=C3\C(=O)Nc4ccccc43)c(=O)n12 (stereo not drawn) | 0.891 µM |
| COc1ccc(Cn2cc3c(c2-c2ccccc2)CCc2cnoc2-3)cc1 | 33.9 µM |
| CC(C)(C)OC(=O)N(CCCCN(CCCn1c2c(c3ccccc3c1=O)C(=O)c1ccccc1-2)C(=O)OC(C)(C)C)CCCn1c2c(c3ccccc3c1=O)C(=O)c1ccccc1-2 | > 100 µM |
| CN[C@@H](C)C(=O)N[C@H](C(=O)N1CCC[C@H]1c1nc(C(=O)c2ccc(F)cc2)cs1)C1CCCCC1 | 16.6 µM |
| Cc1cc(NC(=O)NCCOc2ccc(N3C(N)=NC(N)=NC3(C)C)cc2Cl)ccc1S(=O)(=O)F | 3.59 µM |

Problem: Query (compound): COc1ccc(-c2nc(NC(=O)CS(=O)(=O)c3ccc(F)cc3)sc2C)cc1 ; field requested: GI50
Result: 20.1 µM

Problem: Can you handle O=C(O)CCCN1C(=O)/C(=C/C(Cl)=C/c2ccccc2)SC1=S next?
Result: 1.66 µM
